# experimental.target: CYP2D6 (Homo sapiens)
# Sequence (P10635 whole entry): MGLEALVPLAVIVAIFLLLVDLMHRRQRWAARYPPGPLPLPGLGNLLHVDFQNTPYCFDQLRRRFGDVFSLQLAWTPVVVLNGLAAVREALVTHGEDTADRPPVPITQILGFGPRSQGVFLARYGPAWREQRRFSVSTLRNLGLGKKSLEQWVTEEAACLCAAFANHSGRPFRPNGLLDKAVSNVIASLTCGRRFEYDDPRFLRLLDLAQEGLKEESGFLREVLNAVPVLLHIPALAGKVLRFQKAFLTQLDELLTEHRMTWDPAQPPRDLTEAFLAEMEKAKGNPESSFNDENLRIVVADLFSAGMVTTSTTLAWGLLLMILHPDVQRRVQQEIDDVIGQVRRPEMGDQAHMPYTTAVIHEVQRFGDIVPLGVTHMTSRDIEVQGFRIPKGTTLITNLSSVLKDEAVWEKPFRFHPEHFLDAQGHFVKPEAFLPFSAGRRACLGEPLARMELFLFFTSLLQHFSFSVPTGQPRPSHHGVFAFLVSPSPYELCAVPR
# test.protocol: Inhibition of human CYP2D6 assessed as ratio of IC50 in absence of NADPH to IC50 for presence of NADPH using 4-methylaminoethyl-7-methoxycoumarin as substrate after 30 mins
# condition.set: probe 4-methylaminoethyl-7-methoxycoumarin
Below: a set of entries, each annotated with reported IC50 shift at 0.5 h.

Reference set, count: 4
compound: COCCCC/C(=N\OCCN)c1ccc(C(F)(F)F)cc1
experimental.target: CYP2D6 (Homo sapiens)
IC50 shift at 0.5 h: 2

compound: Oc1ccc2c(c1)[C@@]13CCCC[C@@]1(O)[C@@H](C2)N(CC1CCC1)CC3
experimental.target: CYP2D6 (Homo sapiens)
IC50 shift at 0.5 h: < 2

compound: C[N+]1(C)[C@@H]2CC[C@H]1C[C@@H](OC(=O)C(O)c1ccccc1)C2 (stereo not given in full) [HOMATROPINE METHYLBROMIDE]
experimental.target: CYP2D6 (Homo sapiens)
IC50 shift at 0.5 h: < 2

compound: CC1=C(/C=C/C(C)=C/C=C/C(C)=C/C(=O)O)C(C)(C)CCC1
experimental.target: CYP2D6 (Homo sapiens)
IC50 shift at 0.5 h: 2

Next compound, IC50 shift at 0.5 h to be filled in.
Request: Output IC50 shift at 0.5 h of COc1ccc(CN(CCN(C)C)c2ccccn2)cc1
Result: 2

* * *

Recorded IC50 shift at 0.5 h for the following compounds
# experimental.target: CYP3A4 (Homo sapiens)
# Sequence (P08684 whole entry): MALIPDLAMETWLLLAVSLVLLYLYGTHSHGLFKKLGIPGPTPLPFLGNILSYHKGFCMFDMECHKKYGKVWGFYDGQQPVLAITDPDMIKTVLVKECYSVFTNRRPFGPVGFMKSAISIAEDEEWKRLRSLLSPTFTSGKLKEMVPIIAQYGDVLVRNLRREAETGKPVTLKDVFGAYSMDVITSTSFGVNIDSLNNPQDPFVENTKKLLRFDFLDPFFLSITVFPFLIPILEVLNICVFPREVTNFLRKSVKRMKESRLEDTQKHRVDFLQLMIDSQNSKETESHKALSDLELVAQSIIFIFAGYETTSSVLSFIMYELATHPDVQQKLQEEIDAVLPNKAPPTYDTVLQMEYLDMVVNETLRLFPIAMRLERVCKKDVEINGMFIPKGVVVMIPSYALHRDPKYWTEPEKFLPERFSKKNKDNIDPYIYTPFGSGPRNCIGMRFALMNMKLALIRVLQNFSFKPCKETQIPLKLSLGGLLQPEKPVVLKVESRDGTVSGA
# test.protocol: Inhibition of human CYP3A4 assessed as ratio of IC50 in absence of NADPH to IC50 for presence of NADPH using diethoxyfluorescein as substrate after 30 mins

Please review the entries below; each comes with its answer.
compound: CCCc1cc(=O)[nH]c(=S)[nH]1
experimental.target: CYP3A4 (Homo sapiens)
IC50 shift at 0.5 h: > 5

compound: CC(C)OC(=O)C(C)(C)Oc1ccc(C(=O)c2ccc(Cl)cc2)cc1 [FENOFIBRATE]
experimental.target: CYP3A4 (Homo sapiens)
IC50 shift at 0.5 h: < 2

compound: NNC(=O)c1ccncc1
experimental.target: CYP3A4 (Homo sapiens)
IC50 shift at 0.5 h: > 5

Request: Specify reported IC50 shift at 0.5 h for the compound shown: CN1CCC[C@@H]1CCO[C@](C)(c1ccccc1)c1ccc(Cl)cc1
Result: 2

* * *

# experimental.target: CYP2C19 (Homo sapiens, UniProt P33261)
# Sequence (P33261 whole entry): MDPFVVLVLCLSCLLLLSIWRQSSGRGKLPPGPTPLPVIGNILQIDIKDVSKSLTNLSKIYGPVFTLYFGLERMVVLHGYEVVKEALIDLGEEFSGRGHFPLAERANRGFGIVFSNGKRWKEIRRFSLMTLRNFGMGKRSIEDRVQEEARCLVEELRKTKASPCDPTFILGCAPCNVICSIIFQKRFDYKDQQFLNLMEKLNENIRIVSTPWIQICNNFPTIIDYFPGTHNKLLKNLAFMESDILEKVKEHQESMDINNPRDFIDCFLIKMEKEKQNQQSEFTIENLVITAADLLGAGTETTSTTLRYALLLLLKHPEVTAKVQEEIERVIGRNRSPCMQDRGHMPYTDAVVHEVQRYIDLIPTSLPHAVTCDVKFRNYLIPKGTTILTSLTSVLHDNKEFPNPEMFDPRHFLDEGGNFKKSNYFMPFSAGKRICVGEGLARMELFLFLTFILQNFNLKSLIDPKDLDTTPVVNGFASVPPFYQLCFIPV
# test.protocol: Inhibition of human CYP2C19 assessed as ratio of IC50 in absence of NADPH to IC50 for presence of NADPH using 3-butyryl-7-methoxycoumarin as substrate after 30 mins
metric: IC50 shift at 0.5 h

Request: Report IC50 shift at 0.5 h for C#C[C@]1(O)CC[C@H]2[C@@H]3CCC4=Cc5oncc5C[C@]4(C)[C@H]3CC[C@@]21C [DANAZOL]
Result: < 2

Request: Hello, please tell me recorded IC50 shift at 0.5 h for this one: Nc1c2c(nc3ccccc13)CCCC2 [TACRINE]
Result: < 2

Request: Using the record for O=C(O)COc1ccc(C(=O)c2cccs2)c(Cl)c1Cl , state its measured IC50 shift at 0.5 h.
Result: < 2

Request: Give recorded IC50 shift at 0.5 h. CCN(CC)CC#CCOC(=O)C(O)(c1ccccc1)C1CCCCC1 (stereo not given) [OXYBUTYNIN]
Result: > 5

Request: Give the measured IC50 shift at 0.5 h for CN(C)C(=O)Oc1ccc[n+](C)c1 [PYRIDOSTIGMINE]
Result: 2

Request: # return recorded IC50 shift at 0.5 h for input CC(=O)Oc1ccccc1C(=O)O [ASPIRIN]
Result: < 2

Request: Item CNC1(C)C2CCC(C2)C1(C)C (stereo not given) [MECAMYLAMINE] : provide IC50 shift at 0.5 h
Result: < 2

Request: For CN1CCC[C@@H]1CCO[C@](C)(c1ccccc1)c1ccc(Cl)cc1 [CLEMASTINE] , write its IC50 shift at 0.5 h.
Result: < 2

Request: Supply reported IC50 shift at 0.5 h belonging to this compound: COc1ccc2[nH]c([S+]([O-])Cc3ncc(C)c(OC)c3C)nc2c1 (stereo not given) [OMEPRAZOLE]
Result: < 2

Request: Provide measured IC50 shift at 0.5 h value, entry: CC(C)OC(=O)C(C)(C)Oc1ccc(C(=O)c2ccc(Cl)cc2)cc1 [FENOFIBRATE]
Result: < 2
